Reference source for all entries: patent US20250255848A1

- Assay System: ERα (Homo sapiens (Human))
- Sequence (P03372 whole entry): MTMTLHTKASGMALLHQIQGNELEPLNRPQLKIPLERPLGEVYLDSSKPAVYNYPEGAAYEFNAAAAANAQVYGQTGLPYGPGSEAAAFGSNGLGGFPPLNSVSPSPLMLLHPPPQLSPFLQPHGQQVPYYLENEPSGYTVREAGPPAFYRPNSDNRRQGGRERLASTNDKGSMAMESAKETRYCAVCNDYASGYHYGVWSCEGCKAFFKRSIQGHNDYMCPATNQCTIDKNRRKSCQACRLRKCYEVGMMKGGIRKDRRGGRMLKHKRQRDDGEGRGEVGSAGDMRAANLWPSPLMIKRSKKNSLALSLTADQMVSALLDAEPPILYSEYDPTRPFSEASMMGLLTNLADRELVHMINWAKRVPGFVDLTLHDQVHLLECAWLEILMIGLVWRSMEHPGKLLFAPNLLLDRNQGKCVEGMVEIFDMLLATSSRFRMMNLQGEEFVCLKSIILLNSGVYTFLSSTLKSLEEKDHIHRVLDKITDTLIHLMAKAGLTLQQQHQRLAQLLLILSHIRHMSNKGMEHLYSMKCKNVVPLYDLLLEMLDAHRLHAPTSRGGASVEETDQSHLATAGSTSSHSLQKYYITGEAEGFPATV
- Experiment: Estrogen receptor degradation activity: breast cancer cell ERα in cell western assay
- Type: cell-based
- Applied Conditions: MCF7 cells, 0.3 μM, 4 hours; normalised to fulvestrant 0.1 μM and DMSO
Observable: % Degradation At 0.3 μM (%)
The reply should contain only the number, in %.

Problem: # query: % Degradation At 0.3 μM of entry C[C@H]1CC[C@H](C2=C(c3ccc(C=C4CN(CCCF)C4)cc3)c3ccc(C(=O)O)cc3CCC2)CC1 [Compound 56]
Result: 92

Problem: Also need COc1c(C)cccc1C1=C(c2ccc(C=C3CN(CCCF)C3)cc2)c2ccc(C(=O)O)cc2CCC1 [Compound 3] , thanks.
Result: 90

Problem: Same thing, different compound: COc1cc(C(F)(F)F)cc(C(F)(F)F)c1C1=C(c2ccc(C=C3CN(CCCF)C3)cc2)c2ccc(C(=O)O)cc2CCC1 [Compound 71]
Result: 95

Problem: And then CC(F)(F)c1cc(F)ccc1C1=C(c2ccc(C=C3CN(CCCF)C3)cc2)c2ccc(C(=O)O)cc2CCC1 [Compound 15] , what is it?
Result: 91

Problem: Likewise for O=C(O)c1ccc2c(c1)CCCC(c1ccc(C(F)F)cc1)=C2c1ccc(C=C2CN(CCCF)C2)cc1 [Compound 55] ?
Result: 94

Problem: Item: COc1c(F)cccc1C1=C(c2ccc(C=C3CN(CCCF)C3)cc2)c2ccc(C(=O)O)cc2CCC1 [Compound 40]
Result: 91

Problem: Moving on to COc1cccc(Cl)c1C1=C(c2ccc(C=C3CN(CCCF)C3)cc2)c2ccc(C(=O)O)cc2CCC1 [Compound 23]
Result: 91

Problem: Moving on to CC1(C)CCC(C2=C(c3ncc(C=C4CN(CCCF)C4)cc3F)c3ccc(C(=O)O)cc3CCC2)CC1 [Compound 65]
Result: 91

Problem: Queued: Cc1cc(C2=C(c3ccc(C=C4CN(CCCF)C4)cc3)c3ccc(C(=O)O)cc3CCC2)ccc1C(F)F [Compound 28]
Result: 94

Problem: Item: COc1cccc(C2=C(c3ccc(C=C4CN(CCCF)C4)cc3)c3ccc(C(=O)O)cc3CCC2)c1C(F)F [Compound 60]
Result: 93

Problem: Now give it for Cc1cccc(C2=C(c3ccc(C=C4CN(CCCF)C4)cc3)c3ccc(C(=O)O)cc3CCC2)c1C(F)F [Compound 30] too.
Result: 91

Problem: Moving on to O=C(O)c1ccc2c(c1)CCCC(c1ccc(C(F)(F)F)cc1C1CC1)=C2c1ccc(C=C2CN(CCCF)C2)cc1 [Compound 48]
Result: 94

Problem: Another compound to check: Cc1c(OC(F)(F)F)cccc1C1=C(c2ccc(C=C3CN(CCCF)C3)cc2)c2ccc(C(=O)O)cc2CCC1 [Compound 24]
Result: 91

Problem: Would you mind doing CCc1c(F)cccc1C1=C(c2ccc(C=C3CN(CCCF)C3)cc2)c2ccc(C(=O)O)cc2CCC1 [Compound 39] as well?
Result: 92

Problem: Now consider Cc1cccc(Cl)c1C1=C(c2ccc(C=C3CN(CCCF)C3)cc2)c2ccc(C(=O)O)cc2CCC1 [Compound 21] .
Result: 93

Problem: And Cc1cccc(F)c1C1=C(c2ccc(C=C3CN(CCCF)C3)cc2)c2ccc(C(=O)O)cc2CCC1 [Compound 26] ?
Result: 91

Problem: Follow-up entry: O=C(O)c1ccc2c(c1)CCCC(C1CC13CCC3)=C2c1ccc(C=C2CN(CCCF)C2)cc1 (single isomer, unassigned) [Compound 35]
Result: 91
